Origin of measurements: PubChem BioAssay AID1963428

I'd be grateful if you could share measured pIC50 for these entries.
# Tested on: 171881-019-R-J1-PDC complex spheroid growth, % test/control
# Method summary: Anticancer human tumor 171881-019-R-J1-PDC patient-derived invasive breast carcinoma cell line growth inhibition [Asc]
# Condition: curve of first compound; second compound 0.1 µM
# From the text: Multicellular complex tumor spheroid response to apoptosis pathway targeting inhibitors Alrizomadlin, Pelcitoclax, and Dasminapant in combination with a variety of drugs and investigational agents in selected tumor cell lines […] Compounds. […] If the clinical Cmax for an agent had not been determined, the highest concentration tested was 10 microM. […]
Answers are plain numbers, as −log10 of the molar value.

>  <Molecule>
C=C(F)C(=O)N1CCN(c2nc(OCC3CCCN3C)nc3c2CCN(c2cccc4cccc(Cl)c24)C3)CC1CC#N (stereo not drawn) + Cc1c(S(C)(=O)=O)c(-c2cc(F)cc(N3CCN(c4ccc(NS(=O)(=O)c5ccc(NC(CCN6CCC(C(=O)OCCCP(=O)(O)O)CC6)CSc6ccccc6)c(S(=O)(=O)C(F)(F)F)c5)cc4)CC3)c2)c(-c2ccc(Cl)cc2)n1C(C)C

>  <Assay metric>
pIC50

>  <Meas value>
5.25

$$$$

Next molecule, pIC50 to be filled in.
Bench note: what pIC50 did O=C(c1ccc(F)c(F)c1Nc1ccc(I)cc1F)N1CC(O)([C@@H]2CCCCN2)C1 + CNC(C)C(=O)NC1CN(S(=O)(=O)c2cccc(S(=O)(=O)N3CCC4CCC(C(=O)NC(c5ccccc5)c5ccccc5)N4C(=O)C(NC(=O)C(C)NC)C3)c2)CCC2CCC(C(=O)NC(c3ccccc3)c3ccccc3)N2C1=O show?
6.20

====

What IC50 was measured for each of the following?
# System: 171881-019-R-J1-PDC complex spheroid growth, % test/control
# Method summary: Anticancer human tumor 171881-019-R-J1-PDC cell line growth inhibition [Asc]
# Condition: curve of first compound; second compound 0.316 µM
Give bare numbers, in µM.

>  <Compound>
C=C(F)C(=O)N1CCN(c2nc(OCC3CCCN3C)nc3c2CCN(c2cccc4cccc(Cl)c24)C3)CC1CC#N (stereo not given) + CNC(C)C(=O)NC1CN(S(=O)(=O)c2cccc(S(=O)(=O)N3CCC4CCC(C(=O)NC(c5ccccc5)c5ccccc5)N4C(=O)C(NC(=O)C(C)NC)C3)c2)CCC2CCC(C(=O)NC(c3ccccc3)c3ccccc3)N2C1=O

>  <Unit of measure>
µM

>  <IC50>
5.54

$$$$

Read the next record carefully.
Which IC50 reading was recorded for the compound NC(=O)C(=Cn1cnc(-c2cc(C(F)(F)F)cc(C(F)(F)F)c2)n1)c1cncnc1 + Cc1c(S(C)(=O)=O)c(-c2cc(F)cc(N3CCN(c4ccc(NS(=O)(=O)c5ccc(NC(CCN6CCC(C(=O)OCCCP(=O)(O)O)CC6)CSc6ccccc6)c(S(=O)(=O)C(F)(F)F)c5)cc4)CC3)c2)c(-c2ccc(Cl)cc2)n1C(C)C ?
0.0188

====

# Test system: 171881-019-R-J1-PDC complex spheroid growth, % test/control
# Method summary: Anticancer human tumor 171881-019-R-J1-PDC cell line growth inhibition [Asc]; active = viability on the fitted dose curve at most 10% of control; inactive = the rest
# Condition: second compound 0.316 µM; first compound 0.316 µM
One label from this list, please: Y for active, N for inactive

Answer briefly: the call reported for C=C(F)C(=O)N1CCN(c2nc(OCC3CCCN3C)nc3c2CCN(c2cccc4cccc(Cl)c24)C3)CC1CC#N (configuration not stated) + CNC(C)C(=O)NC1CN(S(=O)(=O)c2cccc(S(=O)(=O)N3CCC4CCC(C(=O)NC(c5ccccc5)c5ccccc5)N4C(=O)C(NC(=O)C(C)NC)C3)c2)CCC2CCC(C(=O)NC(c3ccccc3)c3ccccc3)N2C1=O in this assay.
N

Can you handle O=C(c1cc(Cc2n[nH]c(=O)c3ccccc23)ccc1F)N1CCN(C(=O)C2CC2)CC1 + CNC(C)C(=O)NC1CN(S(=O)(=O)c2cccc(S(=O)(=O)N3CCC4CCC(C(=O)NC(c5ccccc5)c5ccccc5)N4C(=O)C(NC(=O)C(C)NC)C3)c2)CCC2CCC(C(=O)NC(c3ccccc3)c3ccccc3)N2C1=O next?
N

====

# System: 171881-019-R-J1-PDC complex spheroid growth, % test/control
# Method summary: Anticancer human tumor 171881-019-R-J1-PDC cell line growth inhibition [Asc];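 on viability, T/C: spheroids exposed to compounds for 7 days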
# Condition: second compound 3.16 µM; first compound 0.316 µM; stronger effect = lower value
Assay metric: viability, T/C (%)
Numbers only, in %.

>  <Compound>
C=CC(=O)N1CCN(c2nc(=O)n(-c3c(C)ccnc3C(C)C)c3nc(-c4c(O)cccc4F)c(F)cc23)C(C)C1 (stereo not drawn) + Cc1c(S(C)(=O)=O)c(-c2cc(F)cc(N3CCN(c4ccc(NS(=O)(=O)c5ccc(NC(CCN6CCC(C(=O)OCCCP(=O)(O)O)CC6)CSc6ccccc6)c(S(=O)(=O)C(F)(F)F)c5)cc4)CC3)c2)c(-c2ccc(Cl)cc2)n1C(C)C

>  <Unit of measure>
%

>  <viability, T/C>
138

$$$$
>  <Compound>
CCN1CCN(Cc2ccc(Nc3ncc(F)c(-c4cc(F)c5nc(C)n(C(C)C)c5c4)n3)nc2)CC1 + Cc1c(S(C)(=O)=O)c(-c2cc(F)cc(N3CCN(c4ccc(NS(=O)(=O)c5ccc(NC(CCN6CCC(C(=O)OCCCP(=O)(O)O)CC6)CSc6ccccc6)c(S(=O)(=O)C(F)(F)F)c5)cc4)CC3)c2)c(-c2ccc(Cl)cc2)n1C(C)C

>  <Unit of measure>
%

>  <viability, T/C>
188

$$$$
>  <Compound>
O=C(c1ccc(F)c(F)c1Nc1ccc(I)cc1F)N1CC(O)([C@@H]2CCCCN2)C1 + Cc1c(S(C)(=O)=O)c(-c2cc(F)cc(N3CCN(c4ccc(NS(=O)(=O)c5ccc(NC(CCN6CCC(C(=O)OCCCP(=O)(O)O)CC6)CSc6ccccc6)c(S(=O)(=O)C(F)(F)F)c5)cc4)CC3)c2)c(-c2ccc(Cl)cc2)n1C(C)C

>  <Unit of measure>
%

>  <viability, T/C>
8.8

$$$$
>  <Compound>
CNC(C)C(=O)NC1CN(S(=O)(=O)c2cccc(S(=O)(=O)N3CCC4CCC(C(=O)NC(c5ccccc5)c5ccccc5)N4C(=O)C(NC(=O)C(C)NC)C3)c2)CCC2CCC(C(=O)NC(c3ccccc3)c3ccccc3)N2C1=O (stereo not drawn) + Cc1c(S(C)(=O)=O)c(-c2cc(F)cc(N3CCN(c4ccc(NS(=O)(=O)c5ccc(NC(CCN6CCC(C(=O)OCCCP(=O)(O)O)CC6)CSc6ccccc6)c(S(=O)(=O)C(F)(F)F)c5)cc4)CC3)c2)c(-c2ccc(Cl)cc2)n1C(C)C

>  <Unit of measure>
%

>  <viability, T/C>
126

$$$$
>  <Compound>
O=C(c1cc(Cc2n[nH]c(=O)c3ccccc23)ccc1F)N1CCN(C(=O)C2CC2)CC1 + Cc1c(S(C)(=O)=O)c(-c2cc(F)cc(N3CCN(c4ccc(NS(=O)(=O)c5ccc(NC(CCN6CCC(C(=O)OCCCP(=O)(O)O)CC6)CSc6ccccc6)c(S(=O)(=O)C(F)(F)F)c5)cc4)CC3)c2)c(-c2ccc(Cl)cc2)n1C(C)C

>  <Unit of measure>
%

>  <viability, T/C>
193

$$$$
>  <Compound>
C=C(F)C(=O)N1CCN(c2nc(OCC3CCCN3C)nc3c2CCN(c2cccc4cccc(Cl)c24)C3)CC1CC#N (stereo not drawn) + Cc1c(S(C)(=O)=O)c(-c2cc(F)cc(N3CCN(c4ccc(NS(=O)(=O)c5ccc(NC(CCN6CCC(C(=O)OCCCP(=O)(O)O)CC6)CSc6ccccc6)c(S(=O)(=O)C(F)(F)F)c5)cc4)CC3)c2)c(-c2ccc(Cl)cc2)n1C(C)C

>  <Unit of measure>
%

>  <viability, T/C>
144

$$$$
>  <Compound>
C#Cc1c(F)ccc2cc(O)cc(-c3ncc4c(N5CC6CCC(C5)N6)nc(OCC56CCCN5CC(F)C6)nc4c3F)c12 (stereo not drawn) + Cc1c(S(C)(=O)=O)c(-c2cc(F)cc(N3CCN(c4ccc(NS(=O)(=O)c5ccc(NC(CCN6CCC(C(=O)OCCCP(=O)(O)O)CC6)CSc6ccccc6)c(S(=O)(=O)C(F)(F)F)c5)cc4)CC3)c2)c(-c2ccc(Cl)cc2)n1C(C)C

>  <Unit of measure>
%

>  <viability, T/C>
155

$$$$

Attention now turns to another entry.
Which viability, T/C value is on record for COc1c(OCCCN2CCOCC2)ccc2c3n(c(=NC(=O)c4cnc(N)nc4)nc12)CCN3 + Cc1c(S(C)(=O)=O)c(-c2cc(F)cc(N3CCN(c4ccc(NS(=O)(=O)c5ccc(NC(CCN6CCC(C(=O)OCCCP(=O)(O)O)CC6)CSc6ccccc6)c(S(=O)(=O)C(F)(F)F)c5)cc4)CC3)c2)c(-c2ccc(Cl)cc2)n1C(C)C ?
0.26

====

# Test system: 171881-019-R-J1-PDC complex spheroid growth, % test/control
# Method summary: Anticancer human tumor 171881-019-R-J1-PDC cell line growth inhibition [Asc]; active = viability on the fitted dose curve at most 10% of control; inactive = the rest
# Condition: second compound 0.01 µM; first compound 1 µM
In this exercise, the only acceptable responses are 1 (yes) = active, 0 (no) = inactive

>  <Compound>
COc1c(OCCCN2CCOCC2)ccc2c3n(c(=NC(=O)c4cnc(N)nc4)nc12)CCN3 + CNC(C)C(=O)NC1CN(S(=O)(=O)c2cccc(S(=O)(=O)N3CCC4CCC(C(=O)NC(c5ccccc5)c5ccccc5)N4C(=O)C(NC(=O)C(C)NC)C3)c2)CCC2CCC(C(=O)NC(c3ccccc3)c3ccccc3)N2C1=O

>  <Cat>
1 (yes)

$$$$
>  <Compound>
CCN1CCN(Cc2ccc(Nc3ncc(F)c(-c4cc(F)c5nc(C)n(C(C)C)c5c4)n3)nc2)CC1 + CNC(C)C(=O)NC1CN(S(=O)(=O)c2cccc(S(=O)(=O)N3CCC4CCC(C(=O)NC(c5ccccc5)c5ccccc5)N4C(=O)C(NC(=O)C(C)NC)C3)c2)CCC2CCC(C(=O)NC(c3ccccc3)c3ccccc3)N2C1=O

>  <Cat>
0 (no)

$$$$
>  <Compound>
O=C(c1cc(Cc2n[nH]c(=O)c3ccccc23)ccc1F)N1CCN(C(=O)C2CC2)CC1 + CNC(C)C(=O)NC1CN(S(=O)(=O)c2cccc(S(=O)(=O)N3CCC4CCC(C(=O)NC(c5ccccc5)c5ccccc5)N4C(=O)C(NC(=O)C(C)NC)C3)c2)CCC2CCC(C(=O)NC(c3ccccc3)c3ccccc3)N2C1=O

>  <Cat>
0 (no)

$$$$
>  <Compound>
O=C(c1ccc(F)c(F)c1Nc1ccc(I)cc1F)N1CC(O)([C@@H]2CCCCN2)C1 + CNC(C)C(=O)NC1CN(S(=O)(=O)c2cccc(S(=O)(=O)N3CCC4CCC(C(=O)NC(c5ccccc5)c5ccccc5)N4C(=O)C(NC(=O)C(C)NC)C3)c2)CCC2CCC(C(=O)NC(c3ccccc3)c3ccccc3)N2C1=O

>  <Cat>
0 (no)

$$$$

Field: outcome | Entry: C=C(F)C(=O)N1CCN(c2nc(OCC3CCCN3C)nc3c2CCN(c2cccc4cccc(Cl)c24)C3)CC1CC#N (stereo not given) + CNC(C)C(=O)NC1CN(S(=O)(=O)c2cccc(S(=O)(=O)N3CCC4CCC(C(=O)NC(c5ccccc5)c5ccccc5)N4C(=O)C(NC(=O)C(C)NC)C3)c2)CCC2CCC(C(=O)NC(c3ccccc3)c3ccccc3)N2C1=O
0 (no)
